tested on: A498; assay: NCI tumour cell line growth inhibition, 48 h
The source made the active and inactive calls. Rule as the data show it: active = GI50 up to about 1.1 µM and inactive = higher.
measured.endpoint: GI50

* C=C1C(=O)O[C@H]2C[C@@H]1[C@@H](O)[C@H](O)[C@@H](C)CCCC(C)=CCC[C@@]2(C)O | 51.2 µM (inactive)
* CC(=O)N(C(=O)CC(=O)N1N=C(c2ccccc2)C(/N=N/c2ccccc2[N+](=O)[O-])C1=O)c1ccc(Cl)cc1 (stereo unspecified) | > 10 µM (inactive)
* COC(=O)CCC(=O)Nc1cc(C)ccc1C | > 100 µM (inactive)
* O=C1CSC(c2ccc([N+](=O)[O-])cc2)N1c1ccc(-n2c(-c3ccccc3)nc3ccccc3c2=O)cc1 (stereo unspecified) | > 100 µM (inactive)
* COc1ccc(C(c2ccc(OC)cc2)N2C(=O)CCC2C(=O)O)cc1 (stereo unspecified) | > 100 µM (inactive)

Turning now to a further record.
Which measured GI50 value corresponds to `Oc1cc(Cc2ccccc2)c(Cc2ccccc2)cc1O` ?
> 10 µM (inactive)

----------
tested on: K562; assay: NCI tumour cell line growth inhibition, 48 h
Active and inactive are the calls of the source. Rule as the data show it: active = GI50 up to about 1.1 µM and inactive = higher.
measured.endpoint: GI50

Worked examples follow.
* CCOC(=O)c1c(-c2ccc(OC)c(O)c2)c(C#N)c(=S)n(C2OC(CO)C(O)C(O)C2O)c1-c1ccccc1 (stereo not drawn) | > 100 µM (inactive)
* O=C1CSC(c2ccc([N+](=O)[O-])cc2)N1c1ccc(-n2c(-c3ccccc3)nc3ccccc3c2=O)cc1 (stereo not drawn) | 86.9 µM (inactive)
* CN(C)c1ccc(/C=C/c2nc3ccccc3s2)cc1 | > 100 µM (inactive)

I'm curious: which GI50 was measured for C[N+](C)(C)CC1CCCC(C[N+](C)(C)C)C1O (stereo not drawn) tested on K562?
> 100 µM (inactive)

I'm curious: which GI50 was measured for `CCc1ccc2oc(-c3cc(O)c(-c4nc5cc(CC)ccc5o4)cc3O)nc2c1` tested on K562?
> 100 µM (inactive)

I'm curious: which GI50 was measured for `O=[N+]([O-])c1cc(/C=N\NS(=O)(=O)c2ccc(Cl)cc2)c(O)c([N+](=O)[O-])c1` tested on K562?
31.1 µM (inactive)

I'm curious: which GI50 was measured for `CC(C)(C)n1c(=O)n2c(-c3ccccc3)c(-c3ccccc3)n2c1=O` tested on K562?
1.24 µM (inactive)

I'm curious: which GI50 was measured for `CCCOC(=O)CNC(=O)OC(C)(C)C` tested on K562?
> 100 µM (inactive)

I'm curious: which GI50 was measured for CC(C)(C)C1=C(Br)C(F)(C(C)(C)C)OP1(=O)c1ccccc1 (stereo not drawn) tested on K562?
10 µM (inactive)

I'm curious: which GI50 was measured for N#CC1(C#N)C=CC(=C2OCC3CCCN23)C=C1 (stereo not drawn) tested on K562?
> 100 µM (inactive)

I'm curious: which GI50 was measured for `CCOC(=O)CNC1=NNS(=O)(=O)c2ccccc21` tested on K562?
> 100 µM (inactive)

I'm curious: which GI50 was measured for `C=C(Cl)[C@](Cl)(CBr)CC[C@@H](Br)C(C)(C)Cl` tested on K562?
0.916 µM (active)

I'm curious: which GI50 was measured for NC1CC(=O)c2sc(I)cc21 (stereo not drawn) tested on K562?
74 µM (inactive)

I'm curious: which GI50 was measured for CCOC(=O)C1C(=O)CC(=O)C2CCCCC21 (stereo not drawn) tested on K562?
> 100 µM (inactive)

I'm curious: which GI50 was measured for `COC(=O)c1c(C(=O)OC)c2ccccn2c1-c1cc(C)cc2c1C(=O)C=CC2=O` tested on K562?
2.67 µM (inactive)

I'm curious: which GI50 was measured for `O=S1(=O)OCc2ccccc21` tested on K562?
> 100 µM (inactive)

I'm curious: which GI50 was measured for `NC(=O)N/N=C(\Cc1nc2ccc(C(=O)c3ccccc3)cc2nc1O)C(=O)Nc1ccc(Br)cc1` tested on K562?
> 100 µM (inactive)

I'm curious: which GI50 was measured for `Oc1ccc2ccccc2c1/N=N/c1ccc(/N=N/c2ccccc2)cc1` tested on K562?
> 100 µM (inactive)

This collection of values is drawn from ChEMBL document CHEMBL1201862.
